Reference for the values: paper PMC5787524

ASSAY PROTOCOL: Pharmacokinetics in mice (intravenous and oral)
Format: in vivo, ICR mice
MEASUREMENT SETUP: male, ICR, mouse, plasma; LDD1937, mice, 10 mg/kg oral; read-out: Terminal half-life
READOUT LABEL: half-life

# MOL, READOUT LABEL, TEST RESULT
measured = [
    ("COC(=O)c1ccc2c(c1)/C(=C1/Nc3ccccc3/C1=N\\OCCN1CCNCC1)C(=O)N2.Cl.Cl", "half-life", "1.72 h"),
]

###

ASSAY PROTOCOL: Pharmacokinetics in mice (intravenous and oral)
Type: in vivo, ICR mice
MEASUREMENT SETUP: male, ICR, mouse, plasma; LDD1937, mice, 10 mg/kg intravenous; read-out: AUC (converted)
Excerpt: The protocols for the animal studies were approved by the Institute of Laboratory Animal Resources of Dongguk University, Seoul, South Korea (IACUC-2015-055-1). Five-week-old male Imprinting Control Region (ICR) mice were purchased from the Charles River Company Korea (Orient, Seoul, South Korea). […]
READOUT LABEL: AUC (ng·h/mL)

# MOL, TEST RESULT
records = [
    ("COC(=O)c1ccc2c(c1)/C(=C1/Nc3ccccc3/C1=N\\OCCN1CCNCC1)C(=O)N2.Cl.Cl", 2000),
]
